Overview of reported melting point across a group of compounds:

Take a look at these entries with their results.
INSERT INTO assay_data (compound, endpoint_name, result) VALUES
  ('CC(=O)Nc1nc2c(c(=O)[nH]1)CCC(O)N2C(C)=O (centres undefined)', 'melting point', '202 to 205 °C'),
  ('CCOC(=O)/C=C/c1nc(COc2ccc(COc3nn(-c4ccccc4)cc3C=O)cc2OC)c(C)o1', 'melting point', '150 to 151 °C'),
  ('CC1(C)N=C(n2ccccc2=O)c2cc(C#N)ccc2O1', 'melting point', '115 to 116 °C'),
  ('Cc1cc(C(=O)O)c(S(N)(=O)=O)s1', 'melting point', '198 °C');

Could you tell me which melting point is on file for O=C(Nc1ncc(C(F)(F)F)o1)C1c2ccccc2Oc2ccc(F)cc21 (racemic) ?
217 °C

Entry to check: "O=C(O)Cc1csc(-c2ncccc2O)n1"
175 to 176 °C

Entry to check: "OCCOc1ccc(Oc2ccc(F)cc2)cc1"
74 to 76 °C

Entry to check: CC(=S)NCC1CN(c2ccc(N3CCC4(CC3)NC(=O)NC4=O)c(F)c2)C(=O)O1 (centres undefined)
218 °C

Entry to check: "NC(=S)Nc1ccc2ccccc2n1"
179 to 180 °C

Entry to check: O=C(O)C(=O)c1ccc(S(=O)CCOc2ccc3ccccc3c2)cc1 (centres undefined)
157 to 158 °C

Entry to check: COc1ccc(N2CCN(c3c(C)c(C)c4c(c3C)C(N3CCc5ccccc53)C(C)(C)O4)CC2)cc1 (centres undefined)
166 to 168 °C

Entry to check: CC(C)(C)OC(=O)NC1CCN(c2nc3c(cc2F)c(=O)n(N)c(=O)n3C2CC2)C1 (centres undefined)
108 to 110 °C

Entry to check: O=C(NCC(=O)N1c2ccccc2N(Cc2ccccc2)C(=O)[C@H]2CCC[C@H]21)c1ccco1 (relative stereo)
169 to 170 °C

Entry to check: "O=[N+]([O-])c1ccc2[nH]cc(C3=CCNCC3)c2c1"
250 °C

Entry to check: COC(=O)c1cc(CCN(C)CCCC(C#N)(c2ccc(OC)c(OC)c2)C(C)C)ccc1OC (centres undefined)
76 to 81 °C

Entry to check: "CSc1ccc(-c2nc(SC)c(C#N)c(=O)n2-c2ccc(C)cc2C)cc1"
203 to 205 °C

Entry to check: CC1(Br)CS(=O)C2C(NC(=O)Cc3ccccc3)C(=O)N2C1C(=O)OCC(Cl)(Cl)Cl (centres undefined)
159 to 161 °C

Entry to check: "CCCCc1ncc(C(=O)OCC)c(NCc2ccc(-c3ccccc3-c3nnnn3C(c3ccccc3)(c3ccccc3)c3ccccc3)cc2)n1"
116 to 118 °C

Entry to check: "CCOC(=O)C1(NC(=O)c2ccc3c(Cl)cnc(Cl)c3c2)CCCC1"
178 to 180 °C
